Reported conversion to GS-adduct over 24 h values follow for various compounds
Assay: LC-MS based glutathione (GSH) reactivity assay
Format: in vitro ADME
Conditions: GSH, ACN:PBS buffer (1:1), 37 °C, LC-MS 254 nm, 24 h

- compound: "COC(=O)c1ccc(C#CC#Cc2cncn2C)n1C"
  conversion to GS-adduct over 24 h: "1–2%"
- compound: "C(C#Cc1ccccc1)#Cc1ccccc1 [BADY, reference compound]"
  conversion to GS-adduct over 24 h: "1–2%"
- compound: "COC(=O)c1ccc(C#CC#Cc2ccccn2)cc1"
  conversion to GS-adduct over 24 h: "~25%"

###

Test: LC-MS based glutathione (GSH) reactivity assay
Assay type: in vitro ADME
Conditions: GSH, ACN:PBS buffer (1:1), 37 °C, runs at 5 min, 2 h, 24 h
measurement type: extent of conversion to GS-adducts (in words)

- molecule: "COC(=O)c1ccc(C#CC#Cc2cncn2C)n1C"
  measured value: "Minimal"
- molecule: "COC(=O)c1ccc(C#CC#Cc2nccs2)cc1"
  measured value: "complete conversion"
- molecule: "C(C#Cc1ccccc1)#Cc1ccccc1 [BADY, reference compound]"
  measured value: "Minimal"
- molecule: "COC(=O)c1ccc(C#CC#Cc2ncccn2)nc1"
  measured value: "complete conversion"
